Field: umami and saltiness (average point). Provide a value for each of the molecules that follow.
Test system: panelists
Assay: Confirmation of umami imparting and saltiness enhancing effect in 0.3 mass % sodium chloride (point score)
Type: in vivo
Conditions: 10 ppm in aqueous 0.3 mass % sodium chloride solution; average point of 10 panelists vs control; 0 no change, 1 slightly higher, 2 higher, 3 considerably higher, 4 extremely higher umami and saltiness, 5 bitter as lacking balance

**Query** Provide umami and saltiness (average point), system panelists, entry Cc1ccc(COCCCc2ccccn2)cc1 [invention product 5, 2-[3-(p-methylbenzyloxy)propyl]pyridine]
**Result** 4.6

**Query** Provide umami and saltiness (average point), system panelists, entry c1ccc(COCCc2ccccn2)cc1 [comparative product 1, 2-(2-benzyloxyethyl)pyridine, reference compound]
**Result** 4.2

**Query** Provide umami and saltiness (average point), system panelists, entry Cc1ccc(C)c(COCCCc2ccccn2)c1
**Result** 4.6

**Query** Provide umami and saltiness (average point), system panelists, entry COc1ccc(COCCCc2ccccn2)cc1 [invention product 3, 2-[3-(p-methoxybenzyloxy)propyl]pyridine]
**Result** 4.8

**Query** Provide umami and saltiness (average point), system panelists, entry c1ccc(COCCCCc2ccccn2)cc1
**Result** 4.7

**Query** Provide umami and saltiness (average point), system panelists, entry c1ccc(CCSCCc2ccccn2)cc1
**Result** 4.8

**Query** Provide umami and saltiness (average point), system panelists, entry c1ccc(CCOCCc2ccccn2)cc1
**Result** 4.6

----------
Field: umami and saltiness (average point). Provide a value for each of the compounds that follow.
Test system: panelists
Assay: Confirmation of umami imparting and saltiness enhancing effect in 0.3 mass % sodium chloride (point score)
Type: in vivo
Conditions: 50 ppm in aqueous 0.3 mass % sodium chloride solution; average point of 10 panelists vs control; 0 no change, 1 slightly higher, 2 higher, 3 considerably higher, 4 extremely higher umami and saltiness, 5 bitter as lacking balance
Lab note: record just the number, no unit beside it.

**Query** Fill in umami and saltiness (average point) for record Cc1ccc(C)c(COCCCc2ccccn2)c1
**Result** 4.8

**Query** Fill in umami and saltiness (average point) for record COc1ccc(COCCCc2ccccn2)cc1 [invention product 3, 2-[3-(p-methoxybenzyloxy)propyl]pyridine]
**Result** 4.9

**Query** Fill in umami and saltiness (average point) for record Cc1ccc(COCCCc2ccccn2)cc1 [invention product 5, 2-[3-(p-methylbenzyloxy)propyl]pyridine]
**Result** 4.8

----------
System: panelists
Test: Confirmation of umami in water (point score)
Type: in vivo
Conditions: 200 ppm in water; average point of 10 panelists; 0 no difference from control (water), 1 somewhat stronger, 2 stronger, 3 considerably stronger, 4 poor taste balance
Quick rule for you: umami (average point) under 3 gets 1, anything else gets -1.

**Query** Threshold test, umami (average point) < 3: c1ccc(COCCCCc2ccccn2)cc1
**Result** -1

**Query** Threshold test, umami (average point) < 3: Cc1ccc(COCCCc2ccccn2)cc1 [invention product 5, 2-[3-(p-methylbenzyloxy)propyl]pyridine]
**Result** -1

**Query** Threshold test, umami (average point) < 3: c1ccc(CCSCCc2ccccn2)cc1
**Result** -1

**Query** Threshold test, umami (average point) < 3: c1ccc(COCCc2ccccn2)cc1 [comparative product 1, 2-(2-benzyloxyethyl)pyridine, reference compound]
**Result** 1

**Query** Threshold test, umami (average point) < 3: c1ccc(CCOCCc2ccccn2)cc1
**Result** -1

----------
Field: umami (average point). Provide a value for each of the compounds that follow.
Tested on: panelists
Assay: Confirmation of umami in water (point score)
Assay type: in vivo
Details: 500 ppm in water; average point of 10 panelists; 0 no difference from control (water), 1 somewhat stronger, 2 stronger, 3 considerably stronger, 4 poor taste balance
Lab note: record just the number, no unit beside it.

**Query** Fill in umami (average point) for record c1ccc(CCSCCc2ccccn2)cc1
**Result** 3.9

**Query** Fill in umami (average point) for record COc1ccc(COCCCc2ccccn2)cc1 [invention product 3, 2-[3-(p-methoxybenzyloxy)propyl]pyridine]
**Result** 3.6

**Query** Fill in umami (average point) for record c1ccc(COCCCCc2ccccn2)cc1
**Result** 3.8

**Query** Fill in umami (average point) for record c1ccc(CCOCCc2ccccn2)cc1
**Result** 3.8

**Query** Fill in umami (average point) for record c1ccc(COCCc2ccccn2)cc1 [comparative product 1, 2-(2-benzyloxyethyl)pyridine, reference compound]
**Result** 3.3

**Query** Fill in umami (average point) for record Cc1ccc(C)c(COCCCc2ccccn2)c1
**Result** 3.6

**Query** Fill in umami (average point) for record Cc1ccc(COCCCc2ccccn2)cc1 [invention product 5, 2-[3-(p-methylbenzyloxy)propyl]pyridine]
**Result** 3.6

Values were extracted from patent US10894772B2.
